measurement-target: Aryl hydrocarbon receptor (Homo sapiens) (UniProt P35869)
Sequence (P35869 whole entry, looked up): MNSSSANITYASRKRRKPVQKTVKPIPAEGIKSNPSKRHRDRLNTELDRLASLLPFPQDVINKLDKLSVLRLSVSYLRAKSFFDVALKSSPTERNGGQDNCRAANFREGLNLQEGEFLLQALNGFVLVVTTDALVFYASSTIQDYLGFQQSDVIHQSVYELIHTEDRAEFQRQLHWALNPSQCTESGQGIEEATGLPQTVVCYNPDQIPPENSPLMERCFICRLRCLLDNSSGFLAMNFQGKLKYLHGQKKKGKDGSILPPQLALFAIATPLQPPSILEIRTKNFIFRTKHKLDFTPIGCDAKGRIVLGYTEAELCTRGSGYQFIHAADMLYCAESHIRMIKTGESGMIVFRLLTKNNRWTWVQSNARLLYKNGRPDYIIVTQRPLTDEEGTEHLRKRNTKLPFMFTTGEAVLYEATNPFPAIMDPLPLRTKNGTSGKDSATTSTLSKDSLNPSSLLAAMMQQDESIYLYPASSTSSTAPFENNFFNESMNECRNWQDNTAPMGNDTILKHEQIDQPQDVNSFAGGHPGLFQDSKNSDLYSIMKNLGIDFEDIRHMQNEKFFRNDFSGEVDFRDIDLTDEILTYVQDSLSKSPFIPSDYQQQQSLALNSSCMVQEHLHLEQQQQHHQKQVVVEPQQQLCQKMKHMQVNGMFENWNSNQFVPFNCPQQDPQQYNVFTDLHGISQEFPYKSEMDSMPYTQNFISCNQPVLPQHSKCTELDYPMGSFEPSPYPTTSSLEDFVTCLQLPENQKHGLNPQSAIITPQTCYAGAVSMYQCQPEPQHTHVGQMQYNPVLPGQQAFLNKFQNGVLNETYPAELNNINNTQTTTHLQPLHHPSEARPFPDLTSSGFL
assay-text: ATG_Ahr_CIS: Attagene CIS-FACTORIAL HepG2 Assay for human Aryl Hydrocarbon Receptor (Ahr) (AID 2282930)
condition-context: HepG2 AhR cis-factorial reporter transcription; actives raise or lower the signal
The source made the active and inactive calls. The calls were made as follows: active = hit-call score of the fitted dose curve at least 0.9, where 1 is the maximum; inactive = score below 0.9.
Hello, when you answer, please use one of the following outcomes: active, inactive

Please review the entries below; each comes with its answer.
| molecule | assigned-category |
| --- | --- |
| N[C@H]1C(O)O[C@H](CO)[C@H](O)[C@@H]1O (stereo partly specified) | inactive |
| CCC(CC)C(=O)O | inactive |
| N#[N+]c1ccc2c(S(=O)(=O)[O-])cccc2c1O | inactive |
| [Cl][Nd]([Cl])[Cl] | inactive |
| CCCCCCCCCCCSCC(=O)O | inactive |
| O=P(O)(O)Oc1ccccc1 | inactive |

Query: # outcome recorded in this test, key = CCOC(=O)c1ccc(N(C)C)cc1
Result: active

Query: Test call for this molecule, please: C[C@]12C=CC(=O)C=C1CC[C@@H]1[C@@H]2[C@@H](O)C[C@@]2(C)[C@H]1CC[C@]2(O)C(=O)CO
Result: inactive

Entry source: PubChem BioAssay (EPA / NIEHS)
